- Test system: Vero E6
- testName: cell viability relative to DMSO; higher = less toxic
- measurementConditions: 72 h; 10000 nM
recordedEndpoint: cell viability (%)
Respond numerically; units are % and should not be typed.

A selection of reference data follows.
Enquiry: Name the recorded cell viability of the compound listed here: C=C1CC[C@H](O)C/C1=C/C=C1\CCC[C@]2(C)[C@@H]([C@H](C)/C=C/[C@H](C)C(C)C)CC[C@@H]12
Return: 101

Enquiry: Retrieve cell viability measured for CC(C)C(=O)OC[C@@]1(N=[N+]=[N-])O[C@@H](n2ccc(N)nc2=O)[C@H](OC(=O)C(C)C)[C@@H]1OC(=O)C(C)C and print it.
Return: 90.7

Enquiry: Determine from records and report cell viability for C[N+](C)(C)CCCCCCCCCC[N+](C)(C)C
Return: 99.7

New cases:
Enquiry: Give recorded cell viability. CCS(=O)(=O)N(Cc1cccnc1)c1cccc(-c2ccc(C#N)cc2)c1
Return: 85.9

* * *

- Test system: HepG2
- testName: cell viability relative to DMSO; higher = less toxic
- measurementConditions: 72 h; 10000 nM
recordedEndpoint: cell viability (%)
Value expressed in %; do not type the unit.

Enquiry: Assign cell viability to the following record: Cc1ccc(NC(=O)c2cccc(C(C)(C)C#N)c2)cc1Nc1ccc2ncn(C)c(=O)c2c1
Return: 16.6

New cases:
Enquiry: Return value of cell viability for input CC(=O)Nc1ccc(O)cc1 , no commentary.
Return: 92.5

Enquiry: Using the record for CC(=O)[C@H]1CC[C@H]2[C@@H]3CC[C@H]4C[C@H](O)CC[C@]4(C)[C@H]3CC[C@]12C , state its measured cell viability.
Return: 92

Enquiry: Output measured cell viability for this item: C=C[C@H]1CN2CC[C@H]1C[C@H]2[C@H](O)c1ccnc2ccccc12
Return: 94.2

Enquiry: For CN(C)C(=O)CCSC(SCCC(=O)O)c1cccc(/C=C/c2ccc3ccc(Cl)cc3n2)c1 (stereo unspecified) , write its cell viability.
Return: 95.7

Enquiry: Name the recorded cell viability of the compound listed here: CCCCCOc1ccc(-c2cc(-c3ccc(C(=O)N[C@H]4C[C@@H](O)[C@@H](O)NC(=O)[C@@H]5[C@@H](O)[C@@H](C)CN5C(=O)[C@H]([C@H](O)CC(N)=O)NC(=O)[C@H]([C@H](O)[C@@H](O)c5ccc(O)c(OS(=O)(=O)O)c5)NC(=O)[C@@H]5C[C@@H](O)CN5C(=O)[C@H]([C@@H](C)O)NC4=O)cc3)no2)cc1
Return: 109

* * *

Here, each record is paired with measured cell viability data.
- System: Vero E6
- testName: cell viability relative to DMSO; higher = less toxic
- measurementConditions: 72 h; 1000 nM
# output: bare number, implied unit %

Example cases with answers are listed next.
Enquiry: Give cell viability for this entry on Vero E6: OC[C@H]1O[C@H](O[C@H]2O[C@H](CO)[C@@H](O)[C@H](O)[C@H]2O)[C@H](O)[C@@H](O)[C@@H]1O
Return: 105

Enquiry: Give cell viability only, for O=c1c(O)c(-c2ccc(O)c(O)c2)oc2cc(O)cc(O)c12 , using Vero E6 data.
Return: 101

***
Enquiry: Quote cell viability with test system Vero E6 for Cc1cc(O)cc(C)c1Cl
Return: 99.1

* * *

- System: Calu-3
- testName: cell viability relative to DMSO; higher = less toxic
- measurementConditions: 72 h; 1000 nM
Catalogue of cell viability readings, one per entry.
# value in %; strip the unit string

Enquiry: Report measured cell viability on Calu-3; entry: COC(=O)C[C@H]1CC(c2ccc(O)cc2)=NO1 [ISO-1]
Return: 99.5

---
Enquiry: Please report cell viability with Calu-3 for item CN1CCN(CCOc2cc(OC3CCOCC3)c3c(Nc4c(Cl)ccc5c4OCO5)ncnc3c2)CC1 [saracatinib] .
Return: 42.3

Enquiry: Look up and report cell viability, with Calu-3 as system, for CCCCCCCCCCCCCC[C@@H](O)[C@@H](O)[C@@H](N)CO [phytosphingosine]
Return: 82.3

Enquiry: Output reported cell viability of the molecule CN1C(=O)C[C@@H](C(=O)N[C@@H](Cc2c[nH]cn2)C(=O)N2CCC[C@H]2C(N)=O)NC1=O [taltirelin] on Calu-3.
Return: 97.8

Enquiry: # lookup: Calu-3 cell viability, key = C[C@H](Oc1ccc(S(C)(=O)=O)cc1C(=O)N1CCN(c2ncc(C(F)(F)F)cc2F)CC1)C(F)(F)F [bitopertin]
Return: 97.8

Enquiry: # return cell viability for Cc1cc(CC(=O)O)n(C)c1C(=O)c1ccc(Cl)cc1 [zomepirac] , test system: Calu-3
Return: 94.3

Enquiry: Name the value of cell viability reported for c1cc(-c2sc(-c3ccncc3)c(-c3ccncc3)c2-c2ccncc2)ccn1 [GANT-58] when tested on Calu-3.
Return: 88.5
